- method-description: Plasma concentration after administration to CD2F1 mice
- Type: in vivo
- measurement-parameters: mouse, plasma, oral administration of 10 mg/kg
Structures can show the parent of a compound that is named as a salt.

{"compound": "O=[N+]([O-])c1nccn1CCCNc1ccnc2cc(Cl)ccc12 [NLCQ-1, hydrochloride]", "bioavailability (%)": 29}

----------
- method-description: Toxicity (MTD, adverse effects) in mice
- Type: in vivo
- measurement-parameters: mouse, in vivo, ip; multiple doses
Counter-ions that a name gives are not always drawn.

{"compound": "O=[N+]([O-])c1nccn1CCCNc1ccnc2cc(Cl)ccc12 [NLCQ-1, hydrochloride]", "MTD": "≥ 45 mg/kg"}
